# SYSTEM_NAME: Ubiquitin carboxyl-terminal hydrolase 28 (Homo sapiens) (UniProt Q96RU2)
# Sequence (Q96RU2 whole entry, looked up): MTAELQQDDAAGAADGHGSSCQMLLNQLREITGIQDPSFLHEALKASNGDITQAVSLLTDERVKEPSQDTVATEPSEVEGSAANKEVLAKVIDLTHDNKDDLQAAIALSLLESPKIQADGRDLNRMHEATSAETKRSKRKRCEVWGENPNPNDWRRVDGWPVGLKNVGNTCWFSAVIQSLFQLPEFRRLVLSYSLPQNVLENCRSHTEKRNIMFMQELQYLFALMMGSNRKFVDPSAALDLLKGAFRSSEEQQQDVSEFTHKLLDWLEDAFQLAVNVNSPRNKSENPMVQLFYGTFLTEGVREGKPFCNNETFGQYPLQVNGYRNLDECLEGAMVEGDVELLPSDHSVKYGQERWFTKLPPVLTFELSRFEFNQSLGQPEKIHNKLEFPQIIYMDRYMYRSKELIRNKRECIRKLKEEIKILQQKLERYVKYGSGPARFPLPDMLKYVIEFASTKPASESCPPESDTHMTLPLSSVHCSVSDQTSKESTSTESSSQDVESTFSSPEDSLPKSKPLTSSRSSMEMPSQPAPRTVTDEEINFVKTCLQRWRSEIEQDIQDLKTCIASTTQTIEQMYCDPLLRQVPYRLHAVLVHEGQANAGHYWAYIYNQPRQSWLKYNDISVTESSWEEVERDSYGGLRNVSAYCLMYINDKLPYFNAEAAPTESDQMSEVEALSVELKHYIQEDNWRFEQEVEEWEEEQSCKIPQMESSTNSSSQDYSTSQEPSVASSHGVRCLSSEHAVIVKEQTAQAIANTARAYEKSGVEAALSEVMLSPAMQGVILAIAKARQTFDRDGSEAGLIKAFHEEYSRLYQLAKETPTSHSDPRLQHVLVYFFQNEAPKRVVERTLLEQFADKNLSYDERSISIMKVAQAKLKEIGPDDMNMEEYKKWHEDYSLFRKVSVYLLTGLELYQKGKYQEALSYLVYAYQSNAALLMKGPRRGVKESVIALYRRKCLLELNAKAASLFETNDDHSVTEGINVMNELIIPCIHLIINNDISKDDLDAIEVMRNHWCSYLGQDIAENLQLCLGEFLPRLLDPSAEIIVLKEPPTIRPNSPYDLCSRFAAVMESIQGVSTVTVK
# PROTOCOL_NOTES: Concentration-response biochemical assay confirming initial hits as inhibitors of ubiquitin-specific protease 28 (AID 1645866)
# PROTOCOL_CONDITIONS: purified USP28, ubiquitin-rhodamine fluorescence, 30 min
The source made the active and inactive calls.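 The calls were made as follows: active = in confirmatory dose-response testing, peak deubiquitinase inhibition of 30% or more; inactive = the rest.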
// classify into active, inactive

Example results:
COc1cccc(-n2ccc(=O)c(-c3nc(-c4ccccc4Cl)no3)n2)c1; active
COc1cc2cc3c(c(O)c2c(O)c1-c1c(OC)cc2cc4c(c(O)c2c1O)C(=O)OC1CC(C)OC41)C(=O)OC1CC(C)OC31 (configuration not stated); inactive
O=C1Oc2nc3ccccc3cc2CN1Cc1ccco1; active
COc1ccc(/C=C\c2nccc3c2[nH]c2ccccc23)cc1; inactive

GET /call?item= Cn1c(=O)c(C(=O)CN2CCN(c3ccc(O)cc3)CC2)c(N)n(Cc2ccccc2)c1=O returns the recorded outcome of this test. active

Hey, what did the test say about Cn1cccc1C(=O)N1CCCC2(C1)Nc1cccnc1NC2=NC1CCCC1 (configuration not stated) ? inactive

# outcome recorded in this test, key = CCC1=C(c2ccc(C)cc2)S(=O)(=O)NC1=NCC(=O)NCc1ccccc1F active
